Values were extracted from PubChem BioAssay AID248.

System: L1210 leukemia ip in BDF1 mice, survival T/C
test.protocol: NCI In Vivo Anticancer Drug Screen. Data for tumor model L1210 Leukemia (intraperitoneal) in B6D2F1 (BDF1) mice
settings: endpoint: mean survival time; dose: 100.0 mg/kg/injection; schedule: Q01DX009 (ip); vehicle: saline; higher = longer survival
Toxic doses and inconclusive results are not listed.
Quick reference for T/C among some compounds

COc1ccc(C(=O)c2cc(OC)c(OC)c(OC)c2)cc1OC
108 % of control
CC(C)(CO)NC=O (tested in a mixture with another compound)
113 % of control
CC(N)Cc1ccc(O)cc1 (stereo unspecified)
101 % of control
CC(O)CNC(=O)C(C)(C)O (stereo unspecified)
96 % of control
CN=C(Nc1ccccc1)SC
105 % of control

Exam item: Determine from records and report T/C for CN(C)C(C)(C)CO
Marked response: 98 % of control

====

System: L1210 leukemia ip in BDF1 mice, survival T/C
test.protocol: NCI In Vivo Anticancer Drug Screen. Data for tumor model L1210 Leukemia (intraperitoneal) in B6D2F1 (BDF1) mice
settings: endpoint: mean survival time; dose: 12.5 mg/kg/injection; schedule: Q01DX009 (ip); vehicle: Klucel (hydroxypropylcellulose) (HPC); higher = longer survival
Toxic doses and inconclusive results are not listed.
value.type: T/C

O=C(Nc1ncc([N+](=O)[O-])s1)c1cccc([N+](=O)[O-])c1
100 % of control
[Cl][Hg][c]1cccs1
95 % of control

Okay, next one:
Exam item: Determine from records and report T/C for NC(CSS(=O)(=O)O)=NCc1ccsc1
Marked response: 104 % of control

====

Test system: L1210 leukemia ip in BDF1 mice, survival T/C
test.protocol: NCI In Vivo Anticancer Drug Screen. Data for tumor model L1210 Leukemia (intraperitoneal) in B6D2F1 (BDF1) mice
settings: endpoint: mean survival time; dose: 400.0 mg/kg/injection; schedule: Q04DX003 (ip); vehicle: Klucel (hydroxypropylcellulose) (HPC); higher = longer survival
Inconclusive results and toxic doses are left out.
Quick reference for T/C among some compounds

Consider the reported T/C for these compounds:
CC(C)(C)OC(=O)C(=[N+]=[N-])C(=O)OC(C)(C)C
104 % of control
S=C1SC2CCCCC2S1 (configuration not stated)
103 % of control
CC(C)(C)OC(=O)C(CSSCC(NC(=O)OCc1ccccc1)C(=O)OC(C)(C)C)NC(=O)OCc1ccccc1 (configuration not stated)
96 % of control
C(=N\C(/N=C/c1ccccc1)c1ccccc1)/c1ccccc1
92 % of control

Exam item: Determine from records and report T/C for CCOC(=O)c1cnc(SC)nc1NC(C(=O)OCC)C(=O)OCC
Marked response: 95 % of control

Exam item: Determine from records and report T/C for CNC(=O)Nc1ccc(C)c(Cl)c1
Marked response: 104 % of control

Exam item: Determine from records and report T/C for COc1ccc(C=C2C3C=CC2C2C(=O)OC(=O)C32)cc1 (configuration not stated)
Marked response: 89 % of control

Exam item: Determine from records and report T/C for O=C(NC(=O)C(Cl)Cl)Nc1ccc2c(c1)Cc1ccccc1-2
Marked response: 96 % of control

Exam item: Determine from records and report T/C for O=[N+]([O-])c1ccc(/C=C/c2ccccc2)cc1
Marked response: 105 % of control

Exam item: Determine from records and report T/C for COc1ccc(/C=C2\SC(=S)NC2=O)cc1OC
Marked response: 96 % of control

Exam item: Determine from records and report T/C for CCCCCCCCCCCCCCCCOc1ccc(-c2cc(=O)n(C)n2C)cc1
Marked response: 95 % of control

Exam item: Determine from records and report T/C for Nc1ccc(F)cc1[N+](=O)[O-]
Marked response: 91 % of control

====

Quick reference for T/C among some compounds
Tested on: L1210 leukemia ip in BDF1 mice, survival T/C
test.protocol: NCI In Vivo Anticancer Drug Screen. Data for tumor model L1210 Leukemia (intraperitoneal) in B6D2F1 (BDF1) mice
settings: endpoint: mean survival time; dose: 200.0 mg/kg/injection; schedule: Q01DX001 (ip); vehicle: Klucel (hydroxypropylcellulose) (HPC); higher = longer survival
Toxic doses and inconclusive results are not listed.

CC/C(=C(/Cl)c1ccccc1)c1ccccc1
102 % of control
CC(C)Nc1ccc(C(=O)O)cc1
91 % of control
O=C(NC(=O)C(Cl)Cl)OC1c2ccccc2-c2ccccc21
94 % of control
CC(C)(C)OC(=O)C(=[N+]=[N-])C(=O)OC(C)(C)C
97 % of control
CC12CCC(=O)C=C1CCC1C2CCC2(C)C(C(=O)CC(O)(C(F)(F)F)C(F)(F)F)CCC12 (stereo unspecified)
96 % of control
COc1ccc(N=Nc2ccccn2)cc1
103 % of control

Exam item: # return T/C of CC(C)(C)OC(=O)C(C=O)N1C(=O)c2ccccc2C1=O (stereo unspecified) (system: L1210 leukemia ip in BDF1 mice, survival T/C)
Marked response: 92 % of control

Exam item: # return T/C of Cc1cc(Br)ccc1NNS(=O)(=O)c1cccc(N)c1 (system: L1210 leukemia ip in BDF1 mice, survival T/C)
Marked response: 107 % of control

Exam item: # return T/C of C=C(Br)CNC1CCC(CCCC)CC1 (stereo unspecified) (system: L1210 leukemia ip in BDF1 mice, survival T/C)
Marked response: 98 % of control

Exam item: # return T/C of CC(C)(C)c1cc(C(C)(C)C)nc(C(C)(C)C)c1 (system: L1210 leukemia ip in BDF1 mice, survival T/C)
Marked response: 98 % of control

Exam item: # return T/C of O=c1[nH]c(Cc2ccccc2)c([N+](=O)[O-])c(=O)[nH]1 (system: L1210 leukemia ip in BDF1 mice, survival T/C)
Marked response: 97 % of control

====

Test system: L1210 leukemia ip in BDF1 mice, survival T/C
test.protocol: NCI In Vivo Anticancer Drug Screen. Data for tumor model L1210 Leukemia (intraperitoneal) in B6D2F1 (BDF1) mice
settings: endpoint: mean survival time; dose: 75.0 mg/kg/injection; schedule: Q01DX001 (ip); vehicle: saline; higher = longer survival
Toxic doses and inconclusive results are not listed.
Quick reference for T/C among some molecules

Consider the reported T/C for these molecules:
O=[N+]([O-])c1cc(CN2CCCCC2)c(O)c2cccnc12
101 % of control
c1ccc(NP2(Nc3ccccc3)=NP(Nc3ccccc3)(Nc3ccccc3)=NP(Nc3ccccc3)(Nc3ccccc3)=N2)cc1
96 % of control
COC(CN(C)Cc1ccccc1)OC
107 % of control
[CH3][Sb]1([CH3])([CH3])[O]S(=O)(=O)[O]1
97 % of control
CC(C)(O)CNC1CCCCC1
108 % of control

Exam item: # return T/C of CN1CCC2CCC(C1)N2C (configuration not stated) (system: L1210 leukemia ip in BDF1 mice, survival T/C)
Marked response: 93 % of control

Exam item: # return T/C of COc1ccc(-c2c(CO)cc(OC)c(OC)c2OC)c(CO)c1 (system: L1210 leukemia ip in BDF1 mice, survival T/C)
Marked response: 99 % of control

====

Test system: L1210 leukemia ip in BDF1 mice, survival T/C
test.protocol: NCI In Vivo Anticancer Drug Screen. Data for tumor model L1210 Leukemia (intraperitoneal) in B6D2F1 (BDF1) mice
settings: endpoint: mean survival time; dose: 12.5 mg/kg/injection; schedule: Q04DX003 (ip); vehicle: saline; higher = longer survival
Toxic doses and inconclusive results are not listed.
value.type: T/C

Consider the reported T/C for these compounds:
O=[N+]([O-])c1ccc2scc3c4ccccc4nc-3c2c1
101 % of control
O=C1C(Br)=C(N2CC2)C(=O)C(Br)=C1N1CC1
106 % of control
O=C1C[N+]2(CCCCC2)c2ccc(Cl)cc2N1
91 % of control
COc1ccn(C)c(=O)n1
110 % of control
CCCCCCCCCCNC(=O)C[n+]1cccc(C(=O)NC)c1
95 % of control

Exam item: Determine from records and report T/C for NCC(=O)CCS(=O)(=O)c1ccc(Cl)cc1
Marked response: 96 % of control

Exam item: Determine from records and report T/C for O=C(CC(=O)C(F)(F)C(F)(F)C(F)(F)F)C(F)(F)F
Marked response: 102 % of control

====

System: L1210 leukemia ip in BDF1 mice, survival T/C
test.protocol: NCI In Vivo Anticancer Drug Screen. Data for tumor model L1210 Leukemia (intraperitoneal) in B6D2F1 (BDF1) mice
settings: endpoint: mean survival time; dose: 400.0 mg/kg/injection; schedule: Q01DX009 (ip); vehicle: saline; higher = longer survival
Toxic doses and inconclusive results are not listed.
value.type: T/C

Consider the reported T/C for these compounds:
CCOP(=O)(OCC)C(O)c1cnc(SC)nc1N (centres undefined)
105 % of control
OC1COCOC1 (tested in a mixture with another compound)
111 % of control
C[N+]1=COCC1(C)C
115 % of control
CC(C)C1NC(=O)NC1=O (centres undefined)
103 % of control
C1CCC(OB2OB(OC3CCCCC3)OB(OC3CCCCC3)O2)CC1
111 % of control
COC(=O)C1=C(C(=O)OC)C2(O)c3ccccc3C1c1ccccc12
88 % of control
CCOC(=O)CN(C)C#N
92 % of control
O=S(=O)(/C(Br)=C\c1ccccc1)c1ccccc1
98 % of control

Okay, next one:
Exam item: # return T/C of CC(O)CNC(=O)C(C)(C)O (centres undefined) (system: L1210 leukemia ip in BDF1 mice, survival T/C)
Marked response: 94 % of control
